The measured values listed here are drawn from patent US20220380366A1.

- subject-of-test: RET(V804M) mutant (Homo sapiens, UniProt P07949, V804M)
- Construct: purchased Reaction Biology Corporation (contract assay; enzyme is the CRO's)
- Sequence (P07949 29-1114 V804M): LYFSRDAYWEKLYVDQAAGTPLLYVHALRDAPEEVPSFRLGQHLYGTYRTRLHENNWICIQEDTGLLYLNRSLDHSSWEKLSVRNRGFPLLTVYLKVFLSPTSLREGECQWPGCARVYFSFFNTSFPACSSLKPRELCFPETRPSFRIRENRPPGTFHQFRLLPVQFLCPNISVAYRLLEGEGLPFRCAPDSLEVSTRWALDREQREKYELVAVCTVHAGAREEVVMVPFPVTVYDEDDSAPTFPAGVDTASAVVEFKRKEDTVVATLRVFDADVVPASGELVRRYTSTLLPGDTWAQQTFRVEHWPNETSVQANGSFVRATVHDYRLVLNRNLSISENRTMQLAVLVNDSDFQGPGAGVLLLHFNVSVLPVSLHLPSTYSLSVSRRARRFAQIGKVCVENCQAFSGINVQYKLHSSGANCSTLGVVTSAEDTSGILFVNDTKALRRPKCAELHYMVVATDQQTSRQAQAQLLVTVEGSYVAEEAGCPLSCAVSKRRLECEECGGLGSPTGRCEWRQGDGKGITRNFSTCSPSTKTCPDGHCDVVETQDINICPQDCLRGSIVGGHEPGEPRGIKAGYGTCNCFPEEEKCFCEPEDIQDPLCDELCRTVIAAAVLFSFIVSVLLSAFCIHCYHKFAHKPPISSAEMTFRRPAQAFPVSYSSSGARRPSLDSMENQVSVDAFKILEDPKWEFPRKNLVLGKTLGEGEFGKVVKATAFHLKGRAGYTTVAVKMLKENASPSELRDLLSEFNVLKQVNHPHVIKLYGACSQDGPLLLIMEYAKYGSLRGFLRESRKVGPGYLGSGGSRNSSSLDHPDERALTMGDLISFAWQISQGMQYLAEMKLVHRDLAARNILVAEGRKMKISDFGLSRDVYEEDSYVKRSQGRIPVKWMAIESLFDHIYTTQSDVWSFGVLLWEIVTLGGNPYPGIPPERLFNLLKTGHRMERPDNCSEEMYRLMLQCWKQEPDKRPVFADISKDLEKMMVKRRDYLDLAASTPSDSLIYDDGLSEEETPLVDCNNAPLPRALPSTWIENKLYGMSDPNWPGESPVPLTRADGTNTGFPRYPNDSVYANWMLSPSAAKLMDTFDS
- measurement-protocol: Biochemical IC50 of RET(V804M) mutant (33P-ATP filter binding, Reaction Biology)
- condition-info: RET(V804M) mutant; ATP 1 μM; 33P-ATP filter binding; read-out: Biochemical IC50 RET (V804M)
Please respond with 1 when measured IC50 is strictly beneath 10 nM, and with -1 in all other cases.

> print(dat)
                                 cpd.smiles  cat
1  COc1ccc(CN=S2(=O)CCN(c3ccc(-c4cc(OCC(C)(C)O)cn5ncc(C#N)c45)cn3)CC2)cn1   -1
2  COc1ccc(N=S2(=O)CCN(c3ccc(-c4cc(OCC(C)(C)O)cn5ncc(C#N)c45)cn3)CC2)cn1    1
3  CC(C)(O)COc1cc(-c2ccc(N3CCS(=N)(=O)CC3)nc2)c2c(C#N)cnn2c1   -1
4  Cn1cc(-c2cc(-c3ccc(N4CCS(=N)(=O)CC4)nc3)c3c(C#N)cnn3c2)cn1    1
5  Cn1cc(-c2cc(-c3ccc(N4CCC(N=[S@@](C)(=O)c5ccccc5)CC4)nc3)c3c(C#N)cnn3c2)cn1   -1
6  COc1ccc(N=S2(=O)CCN(c3ccc(-c4nc(-c5cnn(C)c5)cn5ncc(C#N)c45)cn3)CC2)cn1    1
7  CC(C)(O)COc1cc(-c2ccc(N3CCC(N=[S@](C)(=O)c4ccccc4)CC3)nc2)c2c(C#N)cnn2c1   -1
